Reference source: PubChem BioAssay AID1159580

protocol-summary: chemical genetic growth profiling, strain panel (AID 1159580);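 note: tested at 20 µM; growth read once vehicle control cultures reached saturation at 30 °C; 1 = growth at the plate median or of vehicle wells; lower values mean less growth of the strain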
protocol-conditions: S. cerevisiae deletion strains, growth OD, locus YPL241C, strain CIN2
Hit rate of the full screen: of about 5,500 compounds, about 2,000 (36%) were called active. Not shown: some 18% with an inconclusive outcome. Cut-off read from the data, not from the text of the source: active = normalized growth mostly below about 0.91 (no sharp cut-off); inconclusive = no clear call, values can overlap the other calls; inactive = mostly above about 0.92. This is one part of the list.
Assign a class; possible classes are Yes = active, No = inactive

> print(dat)
                                    compound  assigned.class
 1       O=C(Nc1cc(-c2ccccc2)[nH]n1)c1ccccc1              No
 2                Nc1ccc(Sc2cc(Cl)ccc2Cl)nc1             Yes
 3  O=C(N[C@@H](CO)[C@H](O)c1ccc([N+](=O)[O-])cc1)C(Cl)Cl              No
 4  O=C(O)c1cc(O)c2c(c1)C(=O)c1cc(O)cc(O)c1C2=O              No
 5       C[N+](C)(C)CC#CCOC(=O)Nc1cccc(Cl)c1              No
 6  COC(=O)c1cc(OC)c(OC)cc1NC(=O)Nc1cc(Cl)cc(Cl)c1              No
 7  Cc1cc(NS(=O)(=O)c2ccc(NC(=O)c3ccccc3)cc2)no1              No
 8              Cn1c(=O)c2c(ncn2CCO)n(C)c1=O              No
 9  C[N+]12CCC(CC1)C(OC(=O)C(O)(c1ccccc1)c1ccccc1)C2 (stereo not drawn)              No
10    Cc1cc(O)c2c(c1)C(=O)c1cc(O)cc(O)c1C2=O              No

Query: Fill in: this test's call for Nc1nc(Sc2ccc(C(F)(F)F)cc2[N+](=O)[O-])n[nH]1 is ___
Response: No

Query: Fill in: this test's call for CC(=O)NS(=O)(=O)c1ccc(N)cc1 is ___
Response: No

Query: Fill in: this test's call for COc1ccc(CCNC(=O)c2ccccc2Cl)cc1OC is ___
Response: No

Query: Fill in: this test's call for CC(=O)OC1CCC2(O)CC1(C)CCC1C2CC1(C)C (stereo not drawn) is ___
Response: No

Query: Fill in: this test's call for CC(C)NC(C)Cc1ccc(I)cc1 (stereo not drawn) is ___
Response: No

Query: Fill in: this test's call for O=C1c2cccc(O)c2C(=O)c2c(O)cccc21 is ___
Response: Yes

Query: Fill in: this test's call for Oc1cc2c(cc1O)[C@H]1c3ccccc3CN[C@@H]1CC2 is ___
Response: Yes

###

protocol-summary: chemical genetic growth profiling, strain panel (AID 1159580)
protocol-conditions: S. cerevisiae deletion strains, growth OD, locus YOL147C, strain pex11, hits give low values
The campaign covered roughly 5,500 compounds. About 2,000 (36%) were called active. Inconclusive results (about 18%) are left out. Some of the results follow.
recorded-metric: normalized growth
Reply with just the number.

Example compounds with recorded normalized growth:
> print(dat)
                                   compound  recorded.result
1        NS(=O)(=O)c1cc2c(cc1Cl)NCNS2(=O)=O            0.993
2       Cc1cc(O)c2c(c1)C(=O)c1cccc(O)c1C2=O            0.994
3         COc1ccc(NS(=O)(=O)c2ccc(N)cc2)nn1             0.99
4                      O=C(O)c1cccnc1C(=O)O             0.99
5            CC(=O)Nc1c(I)cc(I)c(C(=O)O)c1I            0.992
6                           Oc1cccc2cccnc12            0.127
7  CC(=O)OC1CCC2(O)CC1(C)CCC1C2CC1(C)C (stereo unspecified)            0.985
8  CC(=O)Oc1c(C)c(C)c2c(c1C)CCC(C)(CCCC(C)CCCC(C)CCCC(C)C)O2 (stereo unspecified)            0.991

Query: # query: normalized growth of entry C=C[C@H]1CN2CC[C@H]1C[C@H]2[C@H](O)c1ccnc2ccccc12
Response: 0.971

Query: # query: normalized growth of entry CNC(=O)N(C)c1nnc(C(C)(C)C)s1
Response: 1.01

Query: # query: normalized growth of entry CC(=O)O[C@@H]1C2CC[C@@H]3C1(C[C@@H](O)[C@@]1(O)[C@@H](C[C@H](O)C1(C)C)[C@]3(C)O)C[C@@]2(C)O (stereo partly specified)
Response: 1

###

protocol-summary: chemical genetic growth profiling, strain panel (AID 1159580);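 note: tested at 20 µM; growth read once vehicle control cultures reached saturation at 30 °C; 1 = growth at the plate median or of vehicle wells; lower values mean less growth of the strain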
protocol-conditions: S. cerevisiae deletion strains, growth OD, locus YBR229C, strain ROT2, hits give low values
In all, about 5,500 compounds went through this assay and about 2,000 (36%) were called active. About 18% were inconclusive and are not listed. This is one part of the list.
# normalized growth per entry
Reply with just the number.

> print(dat)
                                   molecule    recorded.metric  recorded.result
1         O=c1c(O)c(-c2ccccc2)oc2cc(O)ccc12  normalized growth            0.873
2  O=C1CSC(c2cccnc2)N1c1ccc(C2CCCCC2)cc1 (configuration not stated)  normalized growth             1.01
3  COc1ccc(-c2c(O)c3c(OC)c4c(cc3oc2=O)OC(C)(C)C=C4)cc1  normalized growth            0.951
4       O=c1c(O)c(-c2ccccc2)oc2ccc3occc3c12  normalized growth            0.955
5            O=c1c(O)c(-c2ccccc2)oc2ccccc12  normalized growth            0.963
6  COc1cc([C@@H]2c3cc4c(cc3[C@H](O)[C@H]3COC(=O)[C@H]23)OCO4)cc(OC)c1OC  normalized growth             1.01

Let's switch to this molecule now.
Query: # query: normalized growth of entry COc1cc(OC)c2c(OC)c(-c3ccc4c(c3)OCO4)c(=O)oc2c1
Response: 0.987

###

protocol-summary: chemical genetic growth profiling, strain panel (AID 1159580);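 note: tested at 20 µM; growth read once vehicle control cultures reached saturation at 30 °C; 1 = growth at the plate median or of vehicle wells; lower values mean less growth of the strain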
protocol-conditions: S. cerevisiae deletion strains, growth OD, locus YBR160W, strain CDC28, hits give low values
Among all 5,500 compounds or so, about 2,000 (36%) were called active. Inconclusive results (about 18%) are left out. The list shows a part of the results.
recorded-metric: normalized growth
Reply with just the number.

Example compounds with recorded normalized growth:
> print(dat)
                                 chem.smiles  recorded.result
 1  Cc1csc2c(N3CCN(C(=S)Nc4ccc(C(F)(F)F)cc4)CC3)ncnc12            0.979
 2  O=[N+]([O-])c1ccc(Sc2ccccc2)c([N+](=O)[O-])c1            0.896
 3        Cn1ncc(-c2nc(-c3ccc(Cl)cc3)cs2)c1N            0.939
 4   FC(F)(F)c1ccncc1-c1nc(-c2ccc(Cl)cc2)cs1            0.985
 5          O=[N+]([O-])c1ccc(Sc2ccccc2)cc1O            0.929
 6            O=C(Nc1ccc(F)cc1)c1cc(Br)ccc1O            0.899
 7  Cc1csc2ncnc(N3CCN(C(=S)Nc4ccc(C(F)(F)F)cc4)CC3)c12            0.998
 8  Cc1oc(C(C)(C)C)cc1-c1cc(NC(=O)c2ccccc2)n[nH]1             0.97
 9  Cc1csc2ncnc(N3CCN(C(=O)Nc4ccc(SC(F)(F)F)cc4)CC3)c12            0.979
10   CC(=O)c1ccc(Sc2ccccc2)c([N+](=O)[O-])c1            0.876

Let's switch to this compound now.
Query: # query: normalized growth of entry O=C1C(NCc2ccccc2)=C(NCc2ccccc2)C(=O)c2ccccc21
Response: 0.92

###

# normalized growth per entry
protocol-summary: chemical genetic growth profiling, strain panel (AID 1159580);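 note: tested at 20 µM; growth read once vehicle control cultures reached saturation at 30 °C; 1 = growth at the plate median or of vehicle wells; lower values mean less growth of the strain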
protocol-conditions: S. cerevisiae deletion strains, growth OD, locus YBR135W, strain CKS1, hits give low values
Screen size: about 5,500 compounds; about 2,000 (36%) were called active. Inconclusive results (about 18%) are left out. The list shows a part of the results.
Reply with just the number.

Example compounds with recorded normalized growth:
> print(dat)
                                   compound  recorded.result
1  COC(=O)c1cc([N+](=O)[O-])ccc1S(=O)(=O)Cc1ccc(Cl)cc1            0.991
2            O=C(Nc1ccc(F)cc1)c1cc(Br)ccc1O            0.901
3  CC(C)c1cccc(C(C)C)c1OC(=O)NC(=O)c1c(Cl)cccc1Cl            0.983
4  O=[N+]([O-])c1ccc(NCc2ccc(Cl)c(Cl)c2)nc1            0.936
5  Cc1csc2ncnc(N3CCN(C(=O)Nc4ccc(SC(F)(F)F)cc4)CC3)c12            0.999

Query: # query: normalized growth of entry O=C(/C=C/c1ccc(Cl)cc1)Nc1cccc(Cl)c1
Response: 0.961

Query: # query: normalized growth of entry N/C(=N/OCc1c(F)cccc1Cl)c1ccc(Cl)cc1
Response: 0.929
